TESTED_TARGET: Aurora kinase B (Homo sapiens, UniProt Q96GD4)
Sequence (Q96GD4 whole entry): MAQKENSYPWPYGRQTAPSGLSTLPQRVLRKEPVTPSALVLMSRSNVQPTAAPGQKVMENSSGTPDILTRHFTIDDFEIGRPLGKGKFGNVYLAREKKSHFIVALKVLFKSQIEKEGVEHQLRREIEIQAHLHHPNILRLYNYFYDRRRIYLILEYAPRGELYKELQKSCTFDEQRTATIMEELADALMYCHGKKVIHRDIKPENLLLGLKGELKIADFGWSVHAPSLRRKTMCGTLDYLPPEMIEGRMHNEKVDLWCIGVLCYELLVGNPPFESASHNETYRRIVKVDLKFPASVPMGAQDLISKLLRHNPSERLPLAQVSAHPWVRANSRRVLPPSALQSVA
MEASUREMENT_PROTOCOL: Inhibition of aurora-B (unknown origin)
molecules and their reported IC50
ASSAY_METRIC: IC50 (pM)

[
  {
    "CHEM_SMILES": "O=C(Nc1ccc(Nc2ccnc3[nH]c(=O)c4ccccc4c23)cc1)c1cc(F)cc(F)c1",
    "UNIT_OF_MEASURE": "pM",
    "ENDPOINT_VALUE": 700
  },
  {
    "CHEM_SMILES": "O=C(Nc1ccc(Nc2ccnc3[nH]c(=O)c4ccccc4c23)cc1)c1ccc(F)c(F)c1",
    "UNIT_OF_MEASURE": "pM",
    "ENDPOINT_VALUE": 800
  },
  {
    "CHEM_SMILES": "O=C(Nc1ccc(Nc2ccnc3[nH]c(=O)c4ccccc4c23)cc1)c1c(F)cccc1F",
    "UNIT_OF_MEASURE": "pM",
    "ENDPOINT_VALUE": 600
  },
  {
    "CHEM_SMILES": "O=C(Nc1ccc(Nc2ccnc3[nH]c(=O)c4ccccc4c23)cc1)c1ccccc1C(F)(F)F",
    "UNIT_OF_MEASURE": "pM",
    "ENDPOINT_VALUE": 1000
  },
  {
    "CHEM_SMILES": "O=C(Nc1ccc(Nc2ccnc3[nH]c(=O)c4ccccc4c23)cc1)c1ccccc1",
    "UNIT_OF_MEASURE": "pM",
    "ENDPOINT_VALUE": 1000
  }
]

Origin of values: ChEMBL document CHEMBL2380198
